RUN PARAMETERS: in acetonitrile, 323.15 K
PROPERTY MEASURED: solubility (mole fraction)
Give bare numbers.

Lab note: measured solubility (mole fraction) of CCCCN(CCCC)c1ccc(C(=O)c2ccccc2C(=O)O)c(O)c1 was 0.00444

----------
RUN PARAMETERS: in n-heptane, 288.15 K
PROPERTY MEASURED: solubility (mole fraction)
One number for each entry.

Lab book: solubility (mole fraction) of CCCCN(CCCC)c1ccc(C(=O)c2ccccc2C(=O)O)c(O)c1 noted as 1.8e-05

----------
RUN PARAMETERS: in n-heptane, 283.15 K
PROPERTY MEASURED: solubility (mole fraction)

So for CCCCN(CCCC)c1ccc(C(=O)c2ccccc2C(=O)O)c(O)c1 , the logged solubility (mole fraction) turned out to be 1.5e-05

----------
RUN PARAMETERS: in acetone, 313.15 K
PROPERTY MEASURED: solubility (mole fraction)
Numbers only.

Recorded result, CCCCN(CCCC)c1ccc(C(=O)c2ccccc2C(=O)O)c(O)c1 , solubility (mole fraction): 0.033
